assay: MTD toxicity test in rats; conditions: rat, in vivo; rats; read-out: MTD toxicity dose
TEST READOUT: MTD

Lookup: Need MTD, item COc1cc2nccc(Oc3c(F)cc(NC(=O)NC4CC4)c(Cl)c3F)c2cc1C(N)=O [III-01]
Found: > 300 mg/kg

----------
target: FGFR4 (Homo sapiens (Human), UniProt P22455); assay: Kinase inhibition, Mobility-Shift Assay; type: biochemical; details: class; read-out: FGFR4 range of activity effects (IC50)
Sequence (P22455 22-802): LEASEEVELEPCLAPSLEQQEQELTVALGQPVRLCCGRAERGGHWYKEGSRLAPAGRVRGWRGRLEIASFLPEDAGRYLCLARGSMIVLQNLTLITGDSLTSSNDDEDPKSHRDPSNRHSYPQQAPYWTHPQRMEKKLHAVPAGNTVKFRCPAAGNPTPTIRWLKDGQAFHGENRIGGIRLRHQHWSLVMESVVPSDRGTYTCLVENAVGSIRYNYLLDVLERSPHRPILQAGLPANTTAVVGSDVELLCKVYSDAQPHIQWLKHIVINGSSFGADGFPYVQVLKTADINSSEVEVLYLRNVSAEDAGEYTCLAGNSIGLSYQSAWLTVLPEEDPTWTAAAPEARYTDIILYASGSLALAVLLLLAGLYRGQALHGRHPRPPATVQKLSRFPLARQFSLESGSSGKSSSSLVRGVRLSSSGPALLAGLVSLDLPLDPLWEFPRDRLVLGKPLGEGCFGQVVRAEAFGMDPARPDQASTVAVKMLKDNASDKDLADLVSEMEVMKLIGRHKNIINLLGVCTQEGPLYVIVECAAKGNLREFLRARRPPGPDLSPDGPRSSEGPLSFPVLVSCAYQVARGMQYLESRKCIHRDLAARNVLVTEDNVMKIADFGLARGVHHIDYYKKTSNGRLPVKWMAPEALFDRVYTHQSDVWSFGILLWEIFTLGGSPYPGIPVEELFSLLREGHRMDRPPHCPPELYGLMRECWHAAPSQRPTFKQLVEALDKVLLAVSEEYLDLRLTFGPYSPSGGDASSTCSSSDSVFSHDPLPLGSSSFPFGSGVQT
We begin with a simple list: items and their reported IC50.

COc1cc2nccc(Oc3c(Br)cc(NC(=O)NC4CC4)c(Cl)c3F)c2cc1C(N)=O [III-18]
> 100 nM
COc1cc2nccc(Oc3c(F)cc(NC(=O)NC4CC(O)C4)c(Cl)c3F)c2cc1C(N)=O (centres unmarked) [III-30]
> 100 nM
COc1cc2nccc(Oc3ccc(NC(=O)NC4CC4)c(Cl)c3)c2cc1C(N)=O [Lenvatinib, reference compound]
30 to 100 nM

Lookup: Need IC50, item COc1cc2nccc(Oc3c(F)cc(NC(=O)NC4(C)CC4)c(Cl)c3F)c2cc1C(N)=O [III-22]
Found: > 100 nM

Lookup: Need IC50, item COc1cc2nccc(Oc3c(F)cc(NC(=O)NC[C@H](O)CO)c(Cl)c3F)c2cc1C(N)=O [III-14]
Found: > 100 nM

Lookup: Need IC50, item COc1cc2nccc(Oc3c(F)cc(NC(=O)NC4CC4)c(Cl)c3N(C)C)c2cc1C(N)=O [III-49]
Found: > 100 nM

Lookup: Need IC50, item CCC(C)NC(=O)Nc1cc(F)c(Oc2ccnc3cc(OC)c(C(N)=O)cc23)c(F)c1Cl (centres unmarked) [III-03]
Found: > 100 nM

Lookup: Need IC50, item COc1cc2nccc(Oc3c(Cl)cc(NC(=O)NC4CC4)c(Cl)c3F)c2cc1C(N)=O [III-19]
Found: > 100 nM

----------
We begin with a simple list: items and their reported IC50.
biological target: EGFR (Homo sapiens (Human), UniProt P00533); assay: Kinase inhibition, Mobility-Shift Assay; assay type: biochemical; details: read-out: EGFR IC50
Sequence (P00533 25-1210): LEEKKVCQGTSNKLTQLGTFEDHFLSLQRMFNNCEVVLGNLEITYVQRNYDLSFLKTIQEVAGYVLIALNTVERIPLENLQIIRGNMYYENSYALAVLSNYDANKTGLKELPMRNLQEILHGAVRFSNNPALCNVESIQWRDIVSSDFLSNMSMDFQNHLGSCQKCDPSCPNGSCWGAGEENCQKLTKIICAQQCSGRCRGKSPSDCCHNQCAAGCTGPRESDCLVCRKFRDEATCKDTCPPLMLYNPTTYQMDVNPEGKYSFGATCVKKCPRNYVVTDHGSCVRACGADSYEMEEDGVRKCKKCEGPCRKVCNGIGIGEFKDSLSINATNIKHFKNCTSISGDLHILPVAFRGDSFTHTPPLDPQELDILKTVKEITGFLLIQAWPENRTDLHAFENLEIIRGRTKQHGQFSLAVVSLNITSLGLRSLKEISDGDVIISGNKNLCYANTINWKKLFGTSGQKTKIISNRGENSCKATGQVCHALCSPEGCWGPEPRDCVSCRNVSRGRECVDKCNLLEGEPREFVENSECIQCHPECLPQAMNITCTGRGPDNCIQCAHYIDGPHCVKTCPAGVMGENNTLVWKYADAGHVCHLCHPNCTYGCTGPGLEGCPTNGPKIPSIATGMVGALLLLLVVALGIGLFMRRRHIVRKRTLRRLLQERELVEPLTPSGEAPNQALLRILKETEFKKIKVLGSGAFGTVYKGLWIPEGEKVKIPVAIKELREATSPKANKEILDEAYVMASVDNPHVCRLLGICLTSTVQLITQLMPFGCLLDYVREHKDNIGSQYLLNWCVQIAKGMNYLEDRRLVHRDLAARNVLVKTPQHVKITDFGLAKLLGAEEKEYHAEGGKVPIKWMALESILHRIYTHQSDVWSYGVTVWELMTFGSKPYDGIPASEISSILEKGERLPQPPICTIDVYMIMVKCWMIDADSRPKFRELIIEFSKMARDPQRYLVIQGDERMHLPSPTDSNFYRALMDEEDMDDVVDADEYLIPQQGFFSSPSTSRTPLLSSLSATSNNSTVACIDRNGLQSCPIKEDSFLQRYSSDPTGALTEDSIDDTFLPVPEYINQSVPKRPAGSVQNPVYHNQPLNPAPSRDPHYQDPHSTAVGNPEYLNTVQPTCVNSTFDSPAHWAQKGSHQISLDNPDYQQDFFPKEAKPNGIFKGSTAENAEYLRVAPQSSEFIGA

COc1cc2nccc(Oc3ccc(NC(=O)NC4CC4)c(Cl)c3F)c2cc1C(N)=O [Ref-2, reference compound]
> 1 µM

Lookup: Need IC50, item CNC(=O)c1cc(Oc2ccc(NC(=O)Nc3ccc(Cl)c(C(F)(F)F)c3)c(F)c2)ccn1 [Regorafenib, reference compound]
Found: > 1 µM

----------
experiment: MTD toxicity test in rats; conditions: rat, in vivo, 300 mg/kg; rats; read-out: MTD toxicity dose
TEST READOUT: MTD (mg/kg)
Expressed in mg/kg, but write only the number.

Lookup: Need MTD, item COc1cc2nccc(Oc3c(F)cc(NC(=O)NC4CC4)c(Cl)c3F)c2cc1C(N)=O [III-01]
Found: 300

----------
molecular target: hERG potassium channels (Homo sapiens (Human)); assay: hERG in vitro inhibition, whole-cell patch clamp; conditions: in vitro hERG current inhibition
Sequence (Q12809 whole entry): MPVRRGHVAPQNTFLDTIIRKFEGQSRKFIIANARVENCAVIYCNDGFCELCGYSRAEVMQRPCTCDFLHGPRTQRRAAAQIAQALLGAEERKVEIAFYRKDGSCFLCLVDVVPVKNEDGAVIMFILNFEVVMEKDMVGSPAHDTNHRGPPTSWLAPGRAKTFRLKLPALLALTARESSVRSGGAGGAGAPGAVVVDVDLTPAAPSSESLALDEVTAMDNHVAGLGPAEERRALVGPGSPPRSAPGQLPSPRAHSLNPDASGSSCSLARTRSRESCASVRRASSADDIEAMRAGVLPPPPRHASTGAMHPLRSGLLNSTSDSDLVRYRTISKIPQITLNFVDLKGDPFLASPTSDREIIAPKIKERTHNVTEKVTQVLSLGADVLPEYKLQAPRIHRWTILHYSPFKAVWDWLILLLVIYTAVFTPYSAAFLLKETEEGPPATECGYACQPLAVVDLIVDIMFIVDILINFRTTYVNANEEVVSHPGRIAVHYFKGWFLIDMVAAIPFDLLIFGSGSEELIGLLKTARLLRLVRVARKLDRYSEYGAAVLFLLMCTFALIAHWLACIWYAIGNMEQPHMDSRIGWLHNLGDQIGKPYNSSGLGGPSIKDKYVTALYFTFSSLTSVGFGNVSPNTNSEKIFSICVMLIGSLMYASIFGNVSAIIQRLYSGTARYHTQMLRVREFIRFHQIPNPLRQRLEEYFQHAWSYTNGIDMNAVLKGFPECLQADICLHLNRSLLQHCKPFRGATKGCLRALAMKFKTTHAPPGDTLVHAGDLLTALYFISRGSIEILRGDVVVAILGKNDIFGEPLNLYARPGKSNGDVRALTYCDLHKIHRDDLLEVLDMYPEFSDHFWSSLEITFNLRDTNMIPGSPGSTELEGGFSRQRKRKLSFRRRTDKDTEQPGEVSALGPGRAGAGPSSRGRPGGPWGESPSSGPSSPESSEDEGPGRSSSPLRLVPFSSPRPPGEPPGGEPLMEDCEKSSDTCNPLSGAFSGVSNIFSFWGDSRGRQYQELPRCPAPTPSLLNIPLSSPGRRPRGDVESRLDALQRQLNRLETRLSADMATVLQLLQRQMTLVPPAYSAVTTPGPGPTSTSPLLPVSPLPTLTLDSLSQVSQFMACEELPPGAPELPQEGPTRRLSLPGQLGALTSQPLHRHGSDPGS
TEST READOUT: IC50 (µM)
Expressed in µM, but write only the number.

Lookup: Need IC50, item COc1cc2nccc(Oc3ccc(NC(=O)NC4CC4)c(Cl)c3F)c2cc1C(N)=O [Ref-2, reference compound]
Found: 15.4
